Tested on: hTERT-BJ
assay-comment: Inhibition of mitotic progression in human hTERT-BJ cells transformed with hTert, small t, shRNAs against p53 and pRb and H-RasV12-ER assessed as increase in phosphorylated histone H3 (Ser10) level at 5 uM after 24 hrs by immunoblot analysis relative to control
Assay type: functional
# cutoff 4 applies to fold change (FC); >= gives label 1, < gives label 0

Worked set:
N#C/C(=C\c1cccc2cnccc12)c1c[nH]c2ccccc12 label 1
N#C/C(=C\c1cccc2cnccc12)c1c[nH]c2ccc(CN3CCCC3)cc12 label 0
COc1ccc2c(/C(C#N)=C/c3cccc4cnccc34)c[nH]c2c1 label 1

Problem: fold change (FC) >= 4 for `N#C/C(=C\c1cccc2cnccc12)c1c[nH]c2ccc([N+](=O)[O-])cc12` ?
Result: label 0
